Tested on: MDA-MB-468 breast
Assay: NCI tumour cell line growth inhibition, 48 h
Reported log10(TGI) values follow for various compounds
Form field - Quantity: TGI; Unit: µM; Scale: log10

Example entries begin here.
O=C1Nc2ccccc2/C1=C/c1cn(C(=O)c2c(Cl)cccc2Cl)c2ccccc12: 1.30
COc1cc(C(=O)/C=C/c2c(-c3ccc(F)cc3)nc3ncccn23)cc(OC)c1OC: 0.84
O=C1/C(=C/c2ccc(Cl)cc2)CN(Cc2cn(CCNc3ccnc4cc(Cl)ccc34)nn2)C/C1=C\c1ccc(Cl)cc1: -0.19

Requested field: log10(TGI). Item: CC[C@]12C=CCN3CC[C@@]4(c5ccc(OC)cc5N(C)[C@H]4[C@@](O)(C(=O)OC)[C@@H]1OC(=O)CCC[P+](C1CCCCC1)(C1CCCCC1)C1CCCCC1)[C@@H]32
0.11

What do you get for CS(=O)(=O)Nc1cccc(-c2ccc3c(NC(=O)C4CC4)n[nH]c3c2)c1 ?
1.39

Can you handle CCN(CC)CCCNc1nc2ccccc2c2c(=O)c3cc(Cl)ccc3sc12 next?
0.69

// same read-out, input: O=C(N/N=c1/ccoc2cccnc12)N1CCN(c2ncccn2)CC1
0.13
